- measured target: biotinylated TGF-β1 (Homo sapiens (Human), UniProt P01137 279-390, Biotinylated (site or sites not stated) for capture on streptavidin plates. The active cytokine is a disulfide-linked 25 kDa homodimer; one subunit is given.)
- Sequence (P01137 279-390 limits assumed, form in doubt): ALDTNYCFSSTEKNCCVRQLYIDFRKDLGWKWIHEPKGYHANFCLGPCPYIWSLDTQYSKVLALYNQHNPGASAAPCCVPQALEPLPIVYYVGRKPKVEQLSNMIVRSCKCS
- test protocol: phage display biopanning on biotinylated TGF-β1 on streptavidin plates; clones among 108 colonies after 3 cycles
Flag rule - No. colonies less than 3 colonies flags yes; the remaining entries get no.

Task item: Is it true that No. colonies reported for HRISHFAHRYLARLH (15-aa peptide) [peptide identified by SEQ ID NO: 7] is less than 3 colonies?
Reply: yes

Task item: Hello, is No. colonies of the following binder strictly smaller than 3 colonies? WHKYFLRRPLSVRTR (15-aa peptide) [peptide identified by SEQ ID NO: 11]
Reply: no

Task item: Is the reported No. colonies for PPYHRFWRGHRHAVQ (15-aa peptide) [peptide identified by SEQ ID NO: 6] strictly below 3 colonies?
Reply: no

Task item: # check: No. colonies < 3 colonies for GWITFHRRHHDRVLS (15-aa peptide) [peptide identified by SEQ ID NO: 15]
Reply: yes

Task item: Consider the binder GWHSLLHSRYHRLAA (15-aa peptide) [peptide identified by SEQ ID NO: 9] . Is its No. colonies strictly less than 3 colonies?
Reply: yes

Task item: Check if No. colonies falls below 3 colonies for HVRLHHYLRHRSLPN (15-aa peptide) [peptide identified by SEQ ID NO: 21] .
Reply: yes
